Values compiled from patent US20090098124A1.

- assay_target: T1, soluble dimeric FcγRIIB (extracellular domain fused to hinge-CH2-CH3 of human IgG2) (human, UniProt P31994 43-217)
- T1 construct: extracellular domain; also called FcRIIB; FcRIIB-Fc; not shown: human IgG2 hinge-CH2-CH3
- T1 sequence (looked up): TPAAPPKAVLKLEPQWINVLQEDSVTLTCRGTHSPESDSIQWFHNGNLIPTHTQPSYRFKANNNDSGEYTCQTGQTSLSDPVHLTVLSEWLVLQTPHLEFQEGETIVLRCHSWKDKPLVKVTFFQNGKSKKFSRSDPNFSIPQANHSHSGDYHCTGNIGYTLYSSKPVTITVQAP
- protocol_summary: ELISA
Below, each entry is listed alongside its reported Binding to FcγRIIB (ELISA).
Please respond with the number in fold increase and leave the unit unwritten.

The examples below pair each entry with its known result.
IgG1 Fc mutant P247L, I253N, K334N (antibody) heavy: ASTKGPSVFPLAPSSKSTSGGTAALGCLVKDYFPEPVTVSWNSGALTSGVHTFPAVLQSSGLYSLSSVVTVPSSSLGTQTYICNVNHKPSNTKVDKKVEPKSCDKTHTCPPCPAPELLGGPSVFLFPPKLKDTLMNSRTPEVTCVVVDVSHEDPEVKFNWYVDGVEVHNAKTKPREEQYNSTYRVVSVLTVLHQDWLNGKEYKCKVSNKALPAPIENTISKAKGQPREPQVYTLPPSRDELTKNQVSLTCLVKGFYPSDIAVEWESNGQPENNYKTTPPVLDSDGSFFLYSKLTVDKSRWQQGNVFSCSVMHEALHNHYTQKSLSLSPGK	2.5
IgG1 Fc mutant V273I, K326E, L328I, P396L (antibody) heavy: ASTKGPSVFPLAPSSKSTSGGTAALGCLVKDYFPEPVTVSWNSGALTSGVHTFPAVLQSSGLYSLSSVVTVPSSSLGTQTYICNVNHKPSNTKVDKKVEPKSCDKTHTCPPCPAPELLGGPSVFLFPPKPKDTLMISRTPEVTCVVVDVSHEDPEIKFNWYVDGVEVHNAKTKPREEQYNSTYRVVSVLTVLHQDWLNGKEYKCKVSNEAIPAPIEKTISKAKGQPREPQVYTLPPSRDELTKNQVSLTCLVKGFYPSDIAVEWESNGQPENNYKTTPLVLDSDGSFFLYSKLTVDKSRWQQGNVFSCSVMHEALHNHYTQKSLSLSPGK	10.8

Kindly review the next binder as well.
// recorded Binding to FcγRIIB (ELISA) for IgG1 Fc mutant D221E, D270E, V308A, Q311H, P396L, G402D (antibody) heavy: ASTKGPSVFPLAPSSKSTSGGTAALGCLVKDYFPEPVTVSWNSGALTSGVHTFPAVLQSSGLYSLSSVVTVPSSSLGTQTYICNVNHKPSNTKVDKKVEPKSCEKTHTCPPCPAPELLGGPSVFLFPPKPKDTLMISRTPEVTCVVVDVSHEEPEVKFNWYVDGVEVHNAKTKPREEQYNSTYRVVSVLTALHHDWLNGKEYKCKVSNKALPAPIEKTISKAKGQPREPQVYTLPPSRDELTKNQVSLTCLVKGFYPSDIAVEWESNGQPENNYKTTPLVLDSDDSFFLYSKLTVDKSRWQQGNVFSCSVMHEALHNHYTQKSLSLSPGK : 0.1
